Recorded AC50 by entry
Molecular target: Voltage-dependent L-type calcium channel subunit alpha-1C (Homo sapiens); note: assay procedure not described here
Sequence (Q13936 whole entry): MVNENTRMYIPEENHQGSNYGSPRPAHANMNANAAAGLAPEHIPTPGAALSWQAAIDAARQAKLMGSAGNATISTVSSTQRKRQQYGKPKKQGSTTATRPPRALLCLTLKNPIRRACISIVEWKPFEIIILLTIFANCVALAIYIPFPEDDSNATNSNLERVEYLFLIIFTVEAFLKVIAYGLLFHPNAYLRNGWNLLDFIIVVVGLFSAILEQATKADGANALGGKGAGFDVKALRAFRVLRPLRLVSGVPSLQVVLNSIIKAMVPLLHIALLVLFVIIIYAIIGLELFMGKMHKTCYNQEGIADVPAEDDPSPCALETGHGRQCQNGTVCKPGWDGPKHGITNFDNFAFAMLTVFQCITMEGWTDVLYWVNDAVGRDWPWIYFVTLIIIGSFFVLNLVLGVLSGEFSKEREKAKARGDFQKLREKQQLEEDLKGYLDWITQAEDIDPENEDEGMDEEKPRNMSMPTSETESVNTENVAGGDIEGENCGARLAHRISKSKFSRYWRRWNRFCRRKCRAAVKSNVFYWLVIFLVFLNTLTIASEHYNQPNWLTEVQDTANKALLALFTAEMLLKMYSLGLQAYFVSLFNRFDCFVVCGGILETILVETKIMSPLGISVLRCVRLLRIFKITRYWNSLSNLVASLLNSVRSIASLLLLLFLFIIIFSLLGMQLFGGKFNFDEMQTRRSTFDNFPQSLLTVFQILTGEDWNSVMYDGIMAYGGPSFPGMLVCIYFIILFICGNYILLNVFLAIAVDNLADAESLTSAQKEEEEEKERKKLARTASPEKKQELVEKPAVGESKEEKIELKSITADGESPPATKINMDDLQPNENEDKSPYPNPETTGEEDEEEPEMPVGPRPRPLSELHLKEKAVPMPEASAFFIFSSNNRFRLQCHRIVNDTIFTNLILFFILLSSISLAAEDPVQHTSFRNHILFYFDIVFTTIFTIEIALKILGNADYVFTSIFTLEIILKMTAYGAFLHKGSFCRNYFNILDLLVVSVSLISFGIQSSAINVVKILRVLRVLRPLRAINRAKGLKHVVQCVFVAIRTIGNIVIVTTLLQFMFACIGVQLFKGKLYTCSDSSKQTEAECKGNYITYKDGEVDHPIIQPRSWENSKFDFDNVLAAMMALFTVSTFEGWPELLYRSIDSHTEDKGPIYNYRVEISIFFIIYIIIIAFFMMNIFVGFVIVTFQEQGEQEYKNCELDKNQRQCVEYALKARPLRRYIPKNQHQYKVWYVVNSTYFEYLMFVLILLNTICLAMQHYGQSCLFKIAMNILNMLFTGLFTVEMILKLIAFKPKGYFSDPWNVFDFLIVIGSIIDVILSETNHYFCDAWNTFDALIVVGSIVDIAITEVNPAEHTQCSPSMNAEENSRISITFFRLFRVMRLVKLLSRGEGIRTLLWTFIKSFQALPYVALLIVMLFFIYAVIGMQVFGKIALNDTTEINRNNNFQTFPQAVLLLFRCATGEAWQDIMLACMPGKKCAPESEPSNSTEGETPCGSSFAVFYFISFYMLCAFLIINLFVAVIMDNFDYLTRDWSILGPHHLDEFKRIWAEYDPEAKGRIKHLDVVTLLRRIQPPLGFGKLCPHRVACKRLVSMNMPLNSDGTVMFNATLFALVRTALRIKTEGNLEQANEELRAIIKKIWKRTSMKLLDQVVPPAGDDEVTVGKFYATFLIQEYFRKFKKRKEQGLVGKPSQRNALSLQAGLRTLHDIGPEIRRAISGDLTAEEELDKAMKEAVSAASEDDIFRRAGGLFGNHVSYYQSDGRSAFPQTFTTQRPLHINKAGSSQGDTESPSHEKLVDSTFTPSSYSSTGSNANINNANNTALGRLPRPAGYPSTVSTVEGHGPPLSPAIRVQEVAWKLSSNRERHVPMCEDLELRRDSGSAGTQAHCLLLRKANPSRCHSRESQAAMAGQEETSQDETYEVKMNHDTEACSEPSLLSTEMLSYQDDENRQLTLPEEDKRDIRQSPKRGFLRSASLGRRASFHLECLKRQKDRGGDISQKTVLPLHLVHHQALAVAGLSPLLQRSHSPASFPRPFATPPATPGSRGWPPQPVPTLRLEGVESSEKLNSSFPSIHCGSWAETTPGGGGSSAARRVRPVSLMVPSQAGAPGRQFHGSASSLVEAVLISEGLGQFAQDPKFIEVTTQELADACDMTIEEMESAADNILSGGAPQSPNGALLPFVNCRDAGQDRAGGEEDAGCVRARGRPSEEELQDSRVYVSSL
Type: functional, cell-based

Molecule | AC50
CCCCCCCN(CC)CCCC(O)c1ccc(NS(C)(=O)=O)cc1 (centres undefined) [IBUTILIDE] | > 30 µM
CO/N=C(\C(=O)N[C@@H]1C(=O)N2C(C(=O)O)=C(CSc3nc(=O)c(=O)[nH]n3C)CS[C@H]12)c1csc(N)n1 [CEFTRIAXONE] | > 50 µM
COc1cc(N)c(Cl)cc1C(=O)NC1CCN(CCCOc2ccc(F)cc2)CC1OC (centres undefined) [CISAPRIDE] | > 50 µM
Fc1ccc([C@@H]2CCNC[C@H]2COc2ccc3c(c2)OCO3)cc1 [PAROXETINE] | > 50 µM

====

Target: UniProt P0DMS8
Sequence (P0DMS8 whole entry): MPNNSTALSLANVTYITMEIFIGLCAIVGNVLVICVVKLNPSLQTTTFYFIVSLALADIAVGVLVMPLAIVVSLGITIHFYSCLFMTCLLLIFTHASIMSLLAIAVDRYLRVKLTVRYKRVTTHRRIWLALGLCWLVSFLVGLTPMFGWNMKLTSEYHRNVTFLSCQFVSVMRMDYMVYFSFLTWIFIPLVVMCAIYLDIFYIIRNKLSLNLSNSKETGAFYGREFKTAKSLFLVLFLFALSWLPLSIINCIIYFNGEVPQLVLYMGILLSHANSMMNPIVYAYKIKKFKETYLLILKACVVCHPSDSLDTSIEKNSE
Recorded AC50 by entry

Compound | Experimental target | AC50
CN(C)C/C=C/C(=O)Nc1cc2c(Nc3ccc(F)c(Cl)c3)ncnc2cc1O[C@H]1CCOC1 [AFATINIB] | UniProt P0DMS8 | > 30 µM
O=C(NCCO[N+](=O)[O-])c1cccnc1 [NICORANDIL] | UniProt P0DMS8 | > 30 µM
COc1ccc(CN2CCN(C(c3ccc(F)cc3)c3ccc(F)cc3)CC2)c(OC)c1OC [LOMERIZINE] | UniProt P0DMS8 | 17 µM
Clc1ccc(CCC(Cn2ccnc2)Sc2c(Cl)cccc2Cl)cc1 (configuration not stated) [BUTOCONAZOLE] | UniProt P0DMS8 | 16 µM
CC(C)[C@H](N)C(=O)OCCOCn1cnc2c(=O)[nH]c(N)nc21 [VALACYCLOVIR] | UniProt P0DMS8 | > 30 µM
O=C(CCCN1CCC(O)(c2ccc(Br)cc2)CC1)c1ccc(F)cc1 [BROMPERIDOL] | UniProt P0DMS8 | > 30 µM
COc1cc(C)c(/C=C/C(C)=C/C=C/C(C)=C/C(=O)O)c(C)c1C [ACITRETIN] | UniProt P0DMS8 | > 10 µM
COC(=O)[C@H]1[C@H]2C[C@@H]3c4[nH]c5cc(OC)ccc5c4CCN3C[C@H]2C[C@@H](OC(=O)c2cc(OC)c(OC)c(OC)c2)[C@@H]1OC [RESERPINE] | UniProt P0DMS8 | 26.5 µM
COc1ccc2cc(CCC(C)=O)ccc2c1 [NABUMETONE] | UniProt P0DMS8 | > 10 µM
CC(O)(CS(=O)(=O)c1ccc(F)cc1)C(=O)Nc1ccc(C#N)c(C(F)(F)F)c1 (configuration not stated) [BICALUTAMIDE] | UniProt P0DMS8 | > 30 µM
C[C@]12C=CC(=O)C=C1CC[C@@H]1[C@@H]2CC[C@]2(C)OC(=O)CC[C@@H]12 [TESTOLACTONE] | UniProt P0DMS8 | > 10 µM
CCc1nc(N)nc(N)c1-c1ccc(Cl)cc1 [PYRIMETHAMINE] | UniProt P0DMS8 | > 10 µM
CC(C)(O/N=C(\C(=O)N[C@@H]1C(=O)N2C(C(=O)[O-])=C(C[n+]3ccccc3)CS[C@H]12)c1csc(N)n1)C(=O)O [CEFTAZIDIME] | UniProt P0DMS8 | > 300 µM
CC(=O)[C@H]1CC[C@H]2[C@@H]3C[C@H](C)C4=CC(=O)CC[C@]4(C)[C@H]3[C@@H](O)C[C@]12C [MEDRYSONE] | UniProt P0DMS8 | > 10 µM
C[N+](C)(C)CCOP(=O)([O-])OC[C@H](O)CO | UniProt P0DMS8 | > 30 µM
CC(C)c1cccc(C(C)C)c1O [PROPOFOL] | UniProt P0DMS8 | > 30 µM
CC1(C)S[C@@H]2[C@H](NC(=O)C(C(=O)O)c3ccccc3)C(=O)N2[C@H]1C(=O)O (some centres not stated) [CARBENICILLIN] | UniProt P0DMS8 | > 30 µM
